Reference source for all entries: patent US4444786A

test system: tobacco cutworm (Spodoptera litura); assay: Test Example 1: mortality of third-instar larvae of tobacco cutworm on cabbage, three days; format: in vivo; conditions: 72 h, 200 ppm active ingredient, 3 days

{"smiles-data": "CCOC(=O)CCN(CC(C)C)SN(C)C(=O)ON=C(C)SC", "unit-abbreviation": "%", "mortality at 200 ppm": 95}
{"smiles-data": "CCOC(=O)CCN(SN(C)C(=O)ON=C(C)SC)c1ccc(Cl)cc1", "unit-abbreviation": "%", "mortality at 200 ppm": 70}
{"smiles-data": "CCOC(=O)CN(SN(C)C(=O)ON=C(C)SC)C(=O)CC", "unit-abbreviation": "%", "mortality at 200 ppm": 90}
{"smiles-data": "CCOC(=O)CCN(Cc1ccc(Cl)cc1)SN(C)C(=O)ON=C(C)SC", "unit-abbreviation": "%", "mortality at 200 ppm": 80}
{"smiles-data": "CCOC(=O)CN(CC(=O)OCC)SN(C)C(=O)ON=C(C)SC", "unit-abbreviation": "%", "mortality at 200 ppm": 75}
{"smiles-data": "CCOC(=O)CCN(SN(C)C(=O)ON=C(C)SC)c1cccc(C)c1", "unit-abbreviation": "%", "mortality at 200 ppm": 85}
{"smiles-data": "CCOC(=O)CCN(SN(C)C(=O)ON=C(C)SC)c1ccc(OC)cc1", "unit-abbreviation": "%", "mortality at 200 ppm": 80}
{"smiles-data": "CCCCN(CCC(=O)OC)SN(C)C(=O)ON=C(C)SC", "unit-abbreviation": "%", "mortality at 200 ppm": 100}
{"smiles-data": "CCOC(=O)CN(SN(C)C(=O)ON=C(C)SC)S(=O)(=O)c1ccc(C)cc1", "unit-abbreviation": "%", "mortality at 200 ppm": 80}
